The measured values listed here are drawn from the DeepSol protein solubility set.

experiment: soluble on expression in E. coli; label from the status in PepcDB or PDB records
Measured Attribute: soluble on expression in E. coli

>>> observed_value("MGSDKIHHHHHHHPHSFVDLKNKVLVDGTQLKGFQMEWTMDEIASAELIYEVKNNPDHQAAKKSITAEMEQTAIENHYFSYLYNAKDQPLKFSVKPSNTTFRIAGNRVVFYITFYLSKPYDLKNNAIRFYTYEPSYYMAMEYNNQQDLSINSSECKAKLTQPNVNNSLRLYASSLDKNQKPNMPDGEDNSLGAQFAQTVEVVCE")
"not soluble"
>>> observed_value("MGHHHHHHENLYFQSHLYFQSHDCGSAVTERPKAAPIPTVNPEGKLKKEPNMFSPTLMLPGLGTLSSSQMYPACSQMPTQPAQLGPGKQDTLHSCWQQLYSPSPSASSLLSLHSHSSFTAEVPQPGAQGSSSLPAYNPLNWPDEKNSSFYRNFGNTHGMGAALVSAAGMQSVSSSSIVQGTHQASATTASIMTMPRTPGEVPFLRQQVGYRS")
"not soluble"
>>> observed_value("MGSDKIHHHHHHMATFTRKAIMQTFLHILKNKPLDRITVKDICEQCEINRNTFYYYFKDIYDVLEAIFEDEVRLVMDEAKEGVTFHDAYARVAALILNNREAIMHIYASENGRVLRTYLDAVVTQVVRRFVLEKAEGYSLDDSDIAFITAFYSNGIVGSTIKWIERGSMMSRLPENITANGVGLSKSQYNRDIVKRIGDSFDATIYDMIECCL")
"not soluble"
>>> observed_value("MGSDKIHHHHHHMSMNISGLGNAYSGVNTNSKQYKALKEKGWLEGVIQNEAMMSPEGKMIYEIFGGRDTIVNNLMKQFDSDGDLLNANGVAGMDVTGKGTSWQKLTNVSEEYRQKMFDNVKKEFIQENGVSNGDTTKRSDIFKDYQLSVNKDKRLSGTWTLEQYEGQYRSAMYAAVKAANPNWKPGQKFDTSILDNVTRESAEATLVKNGNRLVRNSIDVSV")
"not soluble"
>>> observed_value("MSLNYQMITTDDALASLCEAVRAFPAIALDTEFVRTRTYYPQLGLIQLFDGEHLALIDPLGITDWSPLKAILRDPSITKFLHAGSEDLEVFLNVFGELPQPLIDTQILAAFCGRPMSWGFASMVEEYSGVTLGKSESRTDWLARPLTERQCEYAAADVWYLLPITAKLMVETEASGWLPAALDECRLMQMRRQEVVAPEDAWRDITNAWQLRTRQLACLQLLADWRLRKARERDLAVNFVVREEHLWSVARYMPGSLGELDSLGLSGSEIRFHGKTLLALVEKAQTLPEDALPQPMLNLMDMPGYRKAFKAIKSLITDVSETHKISAELLASRRQINQLLNWHWKLKPQNNLPELISGWRGELMAEALHNLLQEYPQEGGSHHHHHH")
"soluble"
>>> observed_value("MAHHHHHHMNSGYPGPSGITVGSPGLPPGSLGSPFPEQMTSAHSSDGMQGSNASQVPLTIHADVDQHSKSHSPTLTSGVEVLFATHQPPVAGVNAPWDEDDDWSTPGAPAQHPASVGAPAKPPLPPGNNAPPPILIAEQMNPGSPAEPHPTPVAMSPPPSSDGFIASSSRAGSPNCPPTPLEKPSAANVAKVDALMKQIASRTAAMDAATKEKEMKIVTAAQEYLKALMAKRGEEVMNAKAIHKEEQQVGAEKINEHKKSGDVWSAVGLLVDLQKPNQYSRSTEQMRTVLSALNATPAKK")
"soluble"
>>> observed_value("MNNNLQRDAIAAAIDVLNEERVIAYPTEAVFGVGCDPDSETAVMRLLELKQRPVDKGLILIAANYEQLKPYIDDTMLTDVQRETIFSRWPGPVTFVFPAPATTPRWLTGRFDSLAVRVTDHPLVVALCQAYGKPLVSTSANLSGLPPCRTVDEVRAQFGAAFPVVPGETGGRLNPSEIRDALTGELFRQG")
"soluble"
>>> observed_value("MGSDKIHHHHHHMDSLLFGISGLPNRNSNKKFTYKTGIEYLREIGLDAMELPFVRSVNITDKNKNEVLDTKLKNDFYLSAHGSYFINLNADEEEKIEKSLERIIKGAEGLKKVQGKSLIFHPGFYLKDSKEETFETIKENLLRLPDLGVDYRLETTGKGTQFGSLEENVALCKAVDTCKLCIDFSHIHARYNGSLKSYDDFARILNYVGNELGDEGLNDMHIHLSGINYTAKGERNHLPFEESDFNYKDCLKAFRDFDIKGCVICESPVLEHDALLLKNYYETL")
"not soluble"

Q: What value of measured soluble on expression in E. coli is listed for MSLSSANGGHVDQSDHLALLPPNVRKKGRPTLVLDLDATLFYTSAELLNTPLDYFDMGEESTYRYLYLRPYALDFLGWASTVFEVIIWTAAMESYAEPRIRATEIDRYADVVLYRGACDMIDGSLVKNLAKLGRPLSDMIIVDDNPVSYALNVELAYPIPPFSGEEDDLELLRLVPILRKVLELSSLKRGIYKTIFSEGHHHHHH ?
Result: soluble

Q: Requested read-out: soluble on expression in E. coli. Entry: MGSDKIHHHHHHMTTTEQELTLTPLRGKSGKAYKGTYPNGECVFIKLNTTPILPALAKEQIAPQLLWAKRMGNGDMMSAQEWLNGRTLTKEDMNSKQIIHILLRLHKSKKLVNQLLQLNYKIENPYDLLVDFEQNAPLQIQQNSYLQAIVKELKRSLPEFKSEVATIVHGDIKHSNWVITTSGMIFLVDWDSVRLTDRMYDVAYLLSHYIPRSRWSEWLSYYGYKNNDKVMQKIIWYGQFSHLTQILKCFDKRDMEHVNQEIYALRKFREIFRKK
Result: not soluble

Q: Look up soluble on expression in E. coli: MQKLIMGNWKMNGNSTSIKELCSGISQVQYDTSRVAIAVFPSSVYVKEVISQLPEKVGVGLQNITFYDDGAYTGEISARMLEDIGCDYLLIGHSERRSLFAESDEDVFKKLNKIIDTTITPVVCIGESLDDRQSGKLKQVLATQLSLILENLSVEQLAKVVIAYEPVWAIGTGVVASLEQIQETHQFIRSLLAKVDERLAKNIKIVYGGSLKAENAKDILSLPDVDGGLIGGASLKAAEFNEIINQANKICTE
Result: not soluble

Q: Item under review: MAHHHHHHMSVPKAALMQIFDLYDTDRAGWIPTKRIPYVLRTCGMISTQTEMETLLHDHFASRDTVTRSGFQKFLEQKDILKAEDFSSEKELATAFQVFDSRESGALTSDEVLTILTRMNEKIDVDAYHRVMDGLELNEQGMVEFAKLAAHMLRSANEYKLTVRQVLEELAE . Reported soluble on expression in E. coli?
Result: soluble
